Test system: human apolipoprotein B mRNA
assayProcedure: Inhibition of human apolipoprotein B mRNA levels in HepG2 cells, quantitative real-time PCR
Type: cell-based
assayConditions: Table 19 dose response; HepG2 cells, 300 nM; normalized to untreated control
In the oligonucleotide strings, read from the 5' end, every base follows the letter of its sugar. An asterisk marks phosphorothioate; unmarked linkages are phosphodiester. Other units and linkages are bracketed, terminal groups are in braces. A string of capitals states the bases alone. e = 2'-O-(2-methoxyethyl) (MOE); [5mC] = 5-methylcytosine; d = 2'-deoxy (DNA)
Each item that follows carries a reported % inhibition 300 nM.
propertyName: % inhibition 300 nM (%)

>>> recordedresult("301027 (eG*e[5mC]*eT*e[5mC]*eA*d[5mC]*dT*dG*dT*dA*dT*dG*dG*dT*dT*eT*eT*eA*eT*e[5mC]; antisense) [compound 301027]")
96
>>> recordedresult("301029 (eG*eG*e[5mC]*eT*eG*dG*d[5mC]*dT*d[5mC]*dA*d[5mC]*dT*dG*dT*dA*eT*eG*eG*eT*eT; antisense) [compound 301029]")
85
>>> recordedresult("301030 (eA*eG*eG*e[5mC]*eT*dG*dG*d[5mC]*dT*d[5mC]*dA*d[5mC]*dT*dG*dT*eA*eT*eG*eG*eT; antisense) [compound 301030]")
92

Numbers sourced from patent US7803930B2.
